endpoint name: flash point (°C)

| molecule | scale unit | data value |
| --- | --- | --- |
| CCC(Cl)CCl (centres undefined) [1,2-dichlorobutane] | °C | 27 |
| CCCCCCCCBr [1-bromooctane] | °C | 78 |
| C=CCN [allylamine] | °C | -28 |
| CC1CO1 (centres undefined) [propyleneoxide] | °C | -37 |

====

endpoint name: flash point (°C)

| molecule | scale unit | data value |
| --- | --- | --- |
| CCC(C)c1ccccc1 (stereo not given) | °C | 52.00 |
| Cc1ccc(S(N)(=O)=O)cc1 [4-methylbenzenesulfonamide] | °C | 202.00 |
| CCC(O)CC | °C | 30.00 |
| ClCCCCCl | °C | 40.00 |
| S=C=S | °C | -30.00 |
| CCCCCOC(=O)c1ccccc1C(=O)OCCCCC [dipentyl benzene-1,2-dicarboxylate] | °C | 181.00 |
| CC(C)(C)c1cc(CCC(=O)OCC(COC(=O)CCc2cc(C(C)(C)C)c(O)c(C(C)(C)C)c2)(COC(=O)CCc2cc(C(C)(C)C)c(O)c(C(C)(C)C)c2)COC(=O)CCc2cc(C(C)(C)C)c(O)c(C(C)(C)C)c2)cc(C(C)(C)C)c1O | °C | 297.00 |
| CCCCOCCO | °C | 61.00 |
| C=CCCCCCCCC | °C | 53.00 |
| Cc1ccc([N+](=O)[O-])c(C)c1 | °C | 107.00 |
| COP(=O)(OC)OC1=C(Cl)C2C=CCC12 (stereo not given) | °C | 165.00 |
| CCCCC(CC)Cc1c(C(=O)OOOC(=O)c2cc(O)c(O)c(O)c2)cc(O)c(O)c1O (stereo not given) | °C | 232.00 |
| C=CC(=O)OC [methyl prop-2-enoate] | °C | 7.00 |
| N#CCc1ccccc1 | °C | 102.00 |
| c1ccc(-c2ccccc2)cc1.c1ccc(Oc2ccccc2)cc1 | °C | 124.00 |

====

Counter-ions that a name gives are not always drawn.
Known flash point of a selection of compounds

| compound | flash point / °C |
| --- | --- |
| N#Cc1ccccc1C#N [benzene-1,2-dicarbonitrile] | 162.00 |
| CCOC=O [ethyl formate] | -20.00 |
| CCCCCCCCCCCCCCCCCCS [octadecane-1-thiol] | 185.00 |

====

Lab note: cut-off is 60 °C. Strictly less in flash point is Condition met. Exactly 60 °C or more is Condition not met.

| compound | assigned class |
| --- | --- |
| C=C(C)C=O [2-methylprop-2-enal] | Condition met |
| CCCCOC(=O)CCCCCCCCC(=O)OCCCC [dibutyl decanedioate] | Condition not met |
| Cc1ccc(C)c(C)c1 [1,2,4-trimethylbenzene] | Condition met |
| CC(=O)Nc1ccccc1 [N-phenylacetamide] | Condition not met |
| Cc1cccc(C)c1[N+](=O)[O-] [1,3-dimethyl-2-nitrobenzene] | Condition not met |
| CC1=CC(C)(C)Nc2ccccc21 [2,2,4-trimethyl-1H-quinoline] | Condition not met |
| C/C=C/c1ccc(O)c(OC)c1 [2-methoxy-4-[(E)-prop-1-enyl]phenol] | Condition not met |
| Cc1ccc(Br)cc1 [1-bromo-4-methylbenzene] | Condition not met |
| C=C(C)C(=O)OCCC [propyl 2-methylprop-2-enoate] | Condition met |
| CC(C)(C)c1ccc(O)cc1 [4-tert-butylphenol] | Condition not met |
| C=Cc1ccccc1 [styrene] | Condition met |
| C=CCOC(=O)COCCC(C)C [prop-2-enyl 2-(3-methylbutoxy)acetate] | Condition not met |
| COc1ccc(C=O)cc1 [4-methoxybenzaldehyde] | Condition not met |
| CC(C)CCC(C)(C)C [2,2,5-trimethylhexane] | Condition met |
| C=C(C)C(=O)OCCCCCC [hexyl 2-methylprop-2-enoate] | Condition not met |
| CCCCC(C)O (stereo unspecified) [hexan-2-ol] | Condition met |
| CCCCCCCCCCCO [undecan-1-ol] | Condition not met |
| COC(C)=O [methyl acetate] | Condition met |
| CCCCCCCCCOC(=O)c1ccccc1C(=O)OCCCCCCCCC [dinonyl benzene-1,2-dicarboxylate] | Condition not met |
| O=P(Oc1ccccc1)(Oc1ccccc1)Oc1ccccc1 [triphenyl phosphate] | Condition not met |
| CCB(CC)CC [triethylborane] | Condition met |
| O=[N+]([O-])C(Br)=Cc1ccccc1 [(2-bromo-2-nitroethenyl)benzene] | Condition met |
| CCCCCCCCc1ccc(Nc2ccc(CCCCCCCC)cc2)cc1 [4-octyl-N-(4-octylphenyl)aniline] | Condition not met |
| CCC(C)(C)OC(C)=O [2-methylbutan-2-yl acetate] | Condition met |
| O=C=NC1CCCCC1 [isocyanatocyclohexane] | Condition met |

These measurements were taken from a flash point compilation (Sun et al. 2020).
